# System: BMDMs
# assayInfo: ELISA of cytokine release from BMDMs
# Type: cell-based, mouse
# statedConditions: BMDMs pre-treated, LPS 4 h
measuredMetric: LPS-induced IFN-β release

[[record]]
smilesrecord = "N#CC(C#N)=NNc1cccc(Cl)c1"
measuredmetric = "LPS-induced IFN-β release"
result = "boosted"

[[record]]
smilesrecord = "CC[C@H]1/C=C/C=C/C[C@@H](C)[C@H](O)[C@@](C)(O)C(=O)[C@@H](C)[C@H](O)[C@@H](C)C(=O)[C@@H](C)[C@H](O)[C@@H](C)/C=C/C(=O)O[C@@H]2[C@H](C)[C@H](CC1)O[C@]1(CC[C@H](C)[C@H](C[C@@H](C)O)O1)[C@H]2C"
measuredmetric = "LPS-induced IFN-β release"
result = "boosted"

[[record]]
smilesrecord = "CC(C)[C@@H]1NC(=O)[C@H](C)OC(=O)[C@@H](C(C)C)NC(=O)[C@@H](C(C)C)OC(=O)[C@H](C(C)C)NC(=O)[C@H](C)OC(=O)[C@@H](C(C)C)NC(=O)[C@@H](C(C)C)OC(=O)[C@H](C(C)C)NC(=O)[C@H](C)OC(=O)[C@@H](C(C)C)NC(=O)[C@@H](C(C)C)OC1=O"
measuredmetric = "LPS-induced IFN-β release"
result = "boosted"

